# Assayed target: Homeodomain-interacting protein kinase 2 (Homo sapiens) (UniProt Q9H2X6)
# Sequence (Q9H2X6 whole entry, looked up): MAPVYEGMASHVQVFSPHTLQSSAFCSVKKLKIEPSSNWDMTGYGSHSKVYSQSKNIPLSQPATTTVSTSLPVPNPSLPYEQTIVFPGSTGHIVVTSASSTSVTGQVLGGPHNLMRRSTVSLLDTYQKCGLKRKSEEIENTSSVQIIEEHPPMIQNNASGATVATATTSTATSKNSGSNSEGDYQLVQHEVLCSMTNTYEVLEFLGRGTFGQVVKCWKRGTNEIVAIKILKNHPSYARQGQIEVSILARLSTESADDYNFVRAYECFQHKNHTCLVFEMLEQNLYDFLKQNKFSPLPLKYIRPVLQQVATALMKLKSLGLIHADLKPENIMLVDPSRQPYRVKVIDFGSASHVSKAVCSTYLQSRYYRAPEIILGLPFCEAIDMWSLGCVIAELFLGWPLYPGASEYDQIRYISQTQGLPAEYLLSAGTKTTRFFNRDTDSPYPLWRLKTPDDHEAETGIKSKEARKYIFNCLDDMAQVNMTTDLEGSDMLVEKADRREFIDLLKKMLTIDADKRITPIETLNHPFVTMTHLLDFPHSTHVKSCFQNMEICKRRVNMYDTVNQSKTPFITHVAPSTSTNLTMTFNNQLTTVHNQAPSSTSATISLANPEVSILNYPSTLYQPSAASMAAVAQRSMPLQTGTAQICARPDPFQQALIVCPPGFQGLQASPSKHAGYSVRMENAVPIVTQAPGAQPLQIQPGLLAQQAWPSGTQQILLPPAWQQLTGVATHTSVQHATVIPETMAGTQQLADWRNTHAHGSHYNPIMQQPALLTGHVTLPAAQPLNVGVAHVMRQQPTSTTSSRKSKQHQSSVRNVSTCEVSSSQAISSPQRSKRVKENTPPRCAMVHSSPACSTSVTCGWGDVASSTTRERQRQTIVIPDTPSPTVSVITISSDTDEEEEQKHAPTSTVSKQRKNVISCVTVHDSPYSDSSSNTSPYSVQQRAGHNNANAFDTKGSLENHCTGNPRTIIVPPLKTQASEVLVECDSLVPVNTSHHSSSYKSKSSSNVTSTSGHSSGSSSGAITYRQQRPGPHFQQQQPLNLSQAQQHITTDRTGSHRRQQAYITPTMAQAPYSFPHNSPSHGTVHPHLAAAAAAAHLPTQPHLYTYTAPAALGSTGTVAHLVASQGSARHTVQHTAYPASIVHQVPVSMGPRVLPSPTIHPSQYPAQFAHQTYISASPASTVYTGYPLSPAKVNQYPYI
# Conditions: at 1 µM
Below, each of the compounds is paired with its reported residual activity value.

- Smiles entry: "Cn1cc(/C=C2\\C(=O)Nc3ccc(S(N)(=O)=O)cc32)c2ccccc21"
  Units text: "%"
  residual activity: 60
- Smiles entry: "O=C1Nc2ccc(Br)cc2/C1=C\\c1cc2c([nH]1)CCCC2"
  Units text: "%"
  residual activity: 82
- Smiles entry: "O=C1NC(=O)c2c1c1c3ccccc3[nH]c1c1[nH]c3cc(Br)ccc3c21"
  Units text: "%"
  residual activity: 101
- Smiles entry: "CO[C@H]1C[C@@H]2CC[C@@H](C)[C@@](O)(O2)C(=O)C(=O)N2CCCC[C@H]2C(=O)O[C@H]([C@H](C)C[C@@H]2CC[C@@H](O)[C@H](OC)C2)CC(=O)[C@H](C)/C=C(\\C)[C@@H](O)[C@@H](OC)C(=O)[C@H](C)C[C@H](C)/C=C/C=C/C=C/1C"
  Units text: "%"
  residual activity: 103
- Smiles entry: "CC#CC(=O)Nc1cc2c(Nc3ccc(F)c(Cl)c3)ncnc2cn1"
  Units text: "%"
  residual activity: 103
- Smiles entry: "COc1cc2ncnc(Nc3ccc(Oc4ccccc4)cc3)c2cc1OC"
  Units text: "%"
  residual activity: 99
- Smiles entry: "CC(C)n1cnc2/c(=N/c3cccc(Cl)c3)nc(NCCO)[nH]c21"
  Units text: "%"
  residual activity: 89
- Smiles entry: "NC(=O)c1ccc2[nH]c(-c3ccc(Oc4ccc(Cl)cc4)cc3)nc2c1"
  Units text: "%"
  residual activity: 98
- Smiles entry: "Nc1nc(Nc2ccc(S(N)(=O)=O)cc2)nn1C(=S)Nc1c(F)cccc1F"
  Units text: "%"
  residual activity: 12
- Smiles entry: "CCC(=O)Nc1ccc2ncnc(Nc3cccc(Br)c3)c2c1"
  Units text: "%"
  residual activity: 104
- Smiles entry: "N#CCCc1ccc2c(c1)-c1[nH]c3ccc([N+](=O)[O-])cc3c1CC(=O)N2"
  Units text: "%"
  residual activity: 64
- Smiles entry: "Oc1ccc(Nc2nc(-c3ccc(Cl)cc3)cs2)cc1"
  Units text: "%"
  residual activity: 92
- Smiles entry: "CC(=O)c1ccc(N2CCOCC2)cc1O"
  Units text: "%"
  residual activity: 100
- Smiles entry: "COc1cc2ncnc(Nc3ccc(NC(=O)c4ccccc4)cc3)c2cc1OC"
  Units text: "%"
  residual activity: 99

---

# Assayed target: Mitogen-activated protein kinase 14 (Homo sapiens) (UniProt Q16539)
# Sequence (Q16539 whole entry): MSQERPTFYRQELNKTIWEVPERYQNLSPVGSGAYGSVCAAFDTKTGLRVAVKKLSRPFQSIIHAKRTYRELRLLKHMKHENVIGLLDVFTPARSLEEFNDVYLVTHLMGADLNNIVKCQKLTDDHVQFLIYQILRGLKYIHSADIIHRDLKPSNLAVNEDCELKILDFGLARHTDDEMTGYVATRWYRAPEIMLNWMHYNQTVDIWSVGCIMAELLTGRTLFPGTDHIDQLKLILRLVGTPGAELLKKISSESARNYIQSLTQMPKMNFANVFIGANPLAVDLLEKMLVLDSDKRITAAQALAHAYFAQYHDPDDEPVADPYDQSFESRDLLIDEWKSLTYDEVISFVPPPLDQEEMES
# Conditions: at 1 µM
Reported values of residual activity for individual entries
Recorded endpoint: residual activity (%)

- Smiles entry: "Ic1cccc(CSc2nnc(-c3ccncc3)o2)c1"
  Units text: "%"
  Measurement: 90
- Smiles entry: "Oc1c2ccccc2c2c3c(cccc13)N=N2"
  Units text: "%"
  Measurement: 96
- Smiles entry: "COc1cc2ncnc(Nc3ccc(Oc4ccccc4)cc3)c2cc1OC"
  Units text: "%"
  Measurement: 75
- Smiles entry: "Cc1nc(-c2ccccc2)c(-c2ccncc2)o1"
  Units text: "%"
  Measurement: 57
- Smiles entry: "COc1cc2ncnc(Nc3ccc(O)c(Br)c3)c2cc1OC"
  Units text: "%"
  Measurement: 51
- Smiles entry: "O=c1cc(-c2cccc3c2Sc2ccccc2S3)oc(N2CCOCC2)c1"
  Units text: "%"
  Measurement: 103
- Smiles entry: "c1ccc2c(-c3ccncc3)c[nH]c2c1"
  Units text: "%"
  Measurement: 77
- Smiles entry: "CC(C)n1cnc2/c(=N/c3cccc(Cl)c3)nc(NCCO)[nH]c21"
  Units text: "%"
  Measurement: 84
- Smiles entry: "COc1ccc(OC)c2c(=S)c3ccccc3[nH]c12"
  Units text: "%"
  Measurement: 88
- Smiles entry: "COc1ccc(C(=O)Nc2sc3c(c2C(N)=O)CCCC3)cc1OC"
  Units text: "%"
  Measurement: 93
- Smiles entry: "Nc1nc(Nc2ccc(S(N)(=O)=O)cc2)nn1C(=S)Nc1c(F)cccc1F"
  Units text: "%"
  Measurement: 88
- Smiles entry: "NC(=O)c1ccc2[nH]c(-c3ccc(Oc4ccc(Cl)cc4)cc3)nc2c1"
  Units text: "%"
  Measurement: 90
- Smiles entry: "Cc1cccc(-c2[nH]c(C(C)(C)C)nc2-c2ccc3c(c2)OCO3)n1"
  Units text: "%"
  Measurement: 49

---

# Assayed target: Tyrosine-protein kinase HCK (Homo sapiens)
# Conditions: at 10 µM
Cut-off 90% on residual activity: below means Condition met, at or above means Condition not met.

- Smiles entry: "O=C1c2ccccc2-[n+]2ccc3c([nH]c4ccccc43)c21"
  Cat: "Condition met"
- Smiles entry: "Oc1c2ccccc2c2c3c(cccc13)N=N2"
  Cat: "Condition met"
- Smiles entry: "Nc1nc(Nc2ccc(S(N)(=O)=O)cc2)nn1C(=S)Nc1c(F)cccc1F"
  Cat: "Condition met"
- Smiles entry: "CNc1cc2c(Nc3cccc(Br)c3)ncnc2cn1"
  Cat: "Condition met"
- Smiles entry: "Oc1ccc(Nc2nc(-c3ccc(Cl)cc3)cs2)cc1"
  Cat: "Condition met"
- Smiles entry: "Cc1cc2ncc(-c3ccccc3)nc2cc1C"
  Cat: "Condition not met"
- Smiles entry: "CO[C@@H]1[C@H](N(C)C(=O)c2ccccc2)C[C@H]2O[C@]1(C)n1c3ccccc3c3c4c(c5c6ccccc6n2c5c31)C(=O)NC4"
  Cat: "Condition met"
- Smiles entry: "Cc1ccc(S(=O)(=O)/C=C/C#N)cc1"
  Cat: "Condition not met"
- Smiles entry: "O=[N+]([O-])c1ccc(-c2nc(-c3ccc(F)cc3)c(-c3ccncc3)[nH]2)cc1"
  Cat: "Condition not met"
- Smiles entry: "COc1cc2ncnc(Nc3ccc(NC(=O)c4ccccc4)cc3)c2cc1OC"
  Cat: "Condition met"
- Smiles entry: "CO[C@H]1[C@@H](OC)C[C@H](C)[C@@H](OC)C2=CC(=O)C=C(NC(=O)/C(C)=C/C=C/[C@H](OC)[C@@H](OC(N)=O)/C(C)=C/[C@@H]1C)C2=O"
  Cat: "Condition not met"
- Smiles entry: "CO[C@H]1C[C@@H]2CC[C@@H](C)[C@@](O)(O2)C(=O)C(=O)N2CCCC[C@H]2C(=O)O[C@H]([C@H](C)C[C@@H]2CC[C@@H](O)[C@H](OC)C2)CC(=O)[C@H](C)/C=C(\\C)[C@@H](O)[C@@H](OC)C(=O)[C@H](C)C[C@H](C)/C=C/C=C/C=C/1C"
  Cat: "Condition met"
- Smiles entry: "Cc1nc2cc3nc(-c4cccs4)cnc3cc2n1C"
  Cat: "Condition met"

---

# residual activity values compiled below
# Assayed target: Death-associated protein kinase 3 (Homo sapiens) (UniProt O43293)
# Sequence (O43293 whole entry, looked up): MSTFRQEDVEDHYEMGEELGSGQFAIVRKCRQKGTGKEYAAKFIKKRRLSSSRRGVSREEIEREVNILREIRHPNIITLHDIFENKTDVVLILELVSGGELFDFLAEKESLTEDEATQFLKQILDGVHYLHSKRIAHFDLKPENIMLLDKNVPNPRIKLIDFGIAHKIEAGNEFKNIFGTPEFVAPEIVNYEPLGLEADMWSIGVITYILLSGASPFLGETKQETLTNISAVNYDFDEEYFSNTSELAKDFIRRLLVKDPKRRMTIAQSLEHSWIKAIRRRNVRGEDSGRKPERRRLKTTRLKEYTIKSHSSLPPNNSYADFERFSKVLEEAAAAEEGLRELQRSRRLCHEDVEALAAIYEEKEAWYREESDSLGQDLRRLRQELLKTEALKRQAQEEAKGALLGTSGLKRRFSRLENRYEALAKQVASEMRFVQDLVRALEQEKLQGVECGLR
# Conditions: at 10 µM

- Smiles entry: "CNc1cc2c(Nc3cccc(Br)c3)ncnc2cn1"
  residual activity / %: 88
- Smiles entry: "O=C1NC(=O)c2c1c1c3ccccc3[nH]c1c1[nH]c3cc(Br)ccc3c21"
  residual activity / %: 91
- Smiles entry: "CC[n+]1c(/C=C/N(C)c2ccccc2)n(-c2ccccc2)c2ccc(-c3nc4ccccc4s3)cc21"
  residual activity / %: 73
- Smiles entry: "CCC(=O)Nc1ccc2ncnc(Nc3cccc(Br)c3)c2c1"
  residual activity / %: 100
- Smiles entry: "O=C1NC(=O)/C(=C/c2ccc3c(c2)OC(F)(F)O3)S1"
  residual activity / %: 98

---

The reader will find reported residual activity values listed item by item below.
# Assayed target: Serine/threonine-protein kinase 3 (Homo sapiens) (UniProt Q13188)
# Sequence (Q13188 whole entry): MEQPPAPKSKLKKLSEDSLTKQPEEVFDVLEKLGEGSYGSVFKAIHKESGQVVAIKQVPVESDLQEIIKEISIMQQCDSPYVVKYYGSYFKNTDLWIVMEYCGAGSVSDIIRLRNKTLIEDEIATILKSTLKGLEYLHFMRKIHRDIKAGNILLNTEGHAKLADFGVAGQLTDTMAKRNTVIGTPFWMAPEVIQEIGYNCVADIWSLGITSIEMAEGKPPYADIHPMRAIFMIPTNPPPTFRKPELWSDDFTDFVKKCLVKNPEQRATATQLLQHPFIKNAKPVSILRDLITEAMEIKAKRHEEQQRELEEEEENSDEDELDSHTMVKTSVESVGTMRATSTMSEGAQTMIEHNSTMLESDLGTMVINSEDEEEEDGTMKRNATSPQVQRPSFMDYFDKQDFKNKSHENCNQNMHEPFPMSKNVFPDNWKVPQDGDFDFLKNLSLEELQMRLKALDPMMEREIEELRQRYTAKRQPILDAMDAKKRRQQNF
# Conditions: at 1 µM

- Smiles entry: "O=C1Nc2cc(Br)ccc2/C1=C1/Nc2ccccc2/C1=N\\O"
  residual activity: "10%"
- Smiles entry: "CC[n+]1c(/C=C/N(C)c2ccccc2)n(-c2ccccc2)c2ccc(-c3nc4ccccc4s3)cc21"
  residual activity: "109%"
- Smiles entry: "COc1cc2ncnc(Nc3ccc(Oc4ccccc4)cc3)c2cc1OC"
  residual activity: "96%"

---

# Assayed target: Tyrosine-protein kinase SYK (Homo sapiens) (UniProt P43405)
# Conditions: at 1 µM
Listed next: entries and their corresponding residual activity.

- Smiles entry: "CN(C)c1ccc(/C=C2\\C(=O)Nc3ccccc32)cc1"
  Assayed target: "Tyrosine-protein kinase SYK (Homo sapiens) (UniProt P43405)"
  residual activity / %: 123
- Smiles entry: "Cc1nc2cc3nc(-c4cccs4)cnc3cc2n1C"
  Assayed target: "Tyrosine-protein kinase SYK (Homo sapiens) (UniProt P43405)"
  residual activity / %: 131
- Smiles entry: "CO[C@H]1C[C@@H]2CC[C@@H](C)[C@@](O)(O2)C(=O)C(=O)N2CCCC[C@H]2C(=O)O[C@H]([C@H](C)C[C@@H]2CC[C@@H](O)[C@H](OC)C2)CC(=O)[C@H](C)/C=C(\\C)[C@@H](O)[C@@H](OC)C(=O)[C@H](C)C[C@H](C)/C=C/C=C/C=C/1C"
  Assayed target: "Tyrosine-protein kinase SYK (Homo sapiens) (UniProt P43405)"
  residual activity / %: 106
- Smiles entry: "Nc1cccc(-c2cc3c(Oc4cccc(O)c4)ncnc3[nH]2)c1"
  Assayed target: "Tyrosine-protein kinase SYK (Homo sapiens) (UniProt P43405)"
  residual activity / %: 18
- Smiles entry: "O=C(Nc1cccc(Nc2nccc(Nc3cccc(C(F)(F)F)c3)n2)c1)C1CC1"
  Assayed target: "Tyrosine-protein kinase SYK (Homo sapiens) (UniProt P43405)"
  residual activity / %: 79
- Smiles entry: "Nc1n[nH]c2nnc(-c3c(-c4ccccc4)nn4ccccc34)cc12"
  Assayed target: "Tyrosine-protein kinase SYK (Homo sapiens) (UniProt P43405)"
  residual activity / %: 92
- Smiles entry: "COc1cc2ncnc(Nc3ccc(O)c(Br)c3)c2cc1OC"
  Assayed target: "Tyrosine-protein kinase SYK (Homo sapiens) (UniProt P43405)"
  residual activity / %: 99
- Smiles entry: "Oc1ccc(Nc2nc(-c3ccc(Cl)cc3)cs2)cc1"
  Assayed target: "Tyrosine-protein kinase SYK (Homo sapiens) (UniProt P43405)"
  residual activity / %: 117
- Smiles entry: "Cn1cc(/C=C2\\C(=O)Nc3ccc(S(N)(=O)=O)cc32)c2ccccc21"
  Assayed target: "Tyrosine-protein kinase SYK (Homo sapiens) (UniProt P43405)"
  residual activity / %: 38
- Smiles entry: "O=C1Nc2cc(Br)ccc2/C1=C1/Nc2ccccc2/C1=N\\O"
  Assayed target: "Tyrosine-protein kinase SYK (Homo sapiens) (UniProt P43405)"
  residual activity / %: 70
- Smiles entry: "O=C1NC(=O)/C(=C/c2ccc3c(c2)OC(F)(F)O3)S1"
  Assayed target: "Tyrosine-protein kinase SYK (Homo sapiens) (UniProt P43405)"
  residual activity / %: 121
- Smiles entry: "NC(=O)c1ccc2[nH]c(-c3ccc(Oc4ccc(Cl)cc4)cc3)nc2c1"
  Assayed target: "Tyrosine-protein kinase SYK (Homo sapiens) (UniProt P43405)"
  residual activity / %: 109
- Smiles entry: "CNc1cc2c(Nc3cccc(Br)c3)ncnc2cn1"
  Assayed target: "Tyrosine-protein kinase SYK (Homo sapiens) (UniProt P43405)"
  residual activity / %: 117
- Smiles entry: "CN(C)CCCn1cc(C2=C(c3c[nH]c4ccccc34)C(=O)NC2=O)c2ccccc21"
  Assayed target: "Tyrosine-protein kinase SYK (Homo sapiens) (UniProt P43405)"
  residual activity / %: 120
- Smiles entry: "CC(C)n1cnc2/c(=N/c3cccc(Cl)c3)nc(NCCO)[nH]c21"
  Assayed target: "Tyrosine-protein kinase SYK (Homo sapiens) (UniProt P43405)"
  residual activity / %: 79
- Smiles entry: "Cc1ccc(S(=O)(=O)/C=C/C#N)cc1"
  Assayed target: "Tyrosine-protein kinase SYK (Homo sapiens) (UniProt P43405)"
  residual activity / %: 104
- Smiles entry: "O=Nc1c(-c2c(O)[nH]c3ccccc23)[nH]c2ccccc12"
  Assayed target: "Tyrosine-protein kinase SYK (Homo sapiens) (UniProt P43405)"
  residual activity / %: 49
- Smiles entry: "Cc1cc(Nc2nc(-c3ccccc3)nc3ccccc23)n[nH]1"
  Assayed target: "Tyrosine-protein kinase SYK (Homo sapiens) (UniProt P43405)"
  residual activity / %: 16
- Smiles entry: "O=C1NC(=O)c2c1c1c3ccccc3[nH]c1c1[nH]c3cc(Br)ccc3c21"
  Assayed target: "Tyrosine-protein kinase SYK (Homo sapiens) (UniProt P43405)"
  residual activity / %: 104
- Smiles entry: "COc1ccc(OC)c2c(=S)c3ccccc3[nH]c12"
  Assayed target: "Tyrosine-protein kinase SYK (Homo sapiens) (UniProt P43405)"
  residual activity / %: 94
- Smiles entry: "O=C(O)c1ccc2c3c1cccc3c(=O)n1c3ccccc3nc21"
  Assayed target: "Tyrosine-protein kinase SYK (Homo sapiens) (UniProt P43405)"
  residual activity / %: 100
- Smiles entry: "COc1ccc(S(=O)(=O)N(CCO)c2ccccc2CN(C)C/C=C/c2ccc(Cl)cc2)cc1"
  Assayed target: "Tyrosine-protein kinase SYK (Homo sapiens) (UniProt P43405)"
  residual activity / %: 97
- Smiles entry: "Cc1ccc(NC2=CC(=O)c3sc(C)nc3C2=O)cc1"
  Assayed target: "Tyrosine-protein kinase SYK (Homo sapiens) (UniProt P43405)"
  residual activity / %: 99
- Smiles entry: "CO[C@@H]1[C@H](N(C)C(=O)c2ccccc2)C[C@H]2O[C@]1(C)n1c3ccccc3c3c4c(c5c6ccccc6n2c5c31)C(=O)NC4"
  Assayed target: "Tyrosine-protein kinase SYK (Homo sapiens) (UniProt P43405)"
  residual activity / %: 2
- Smiles entry: "COc1cc2ncnc(N3CCN(C(=O)Nc4ccc(Oc5ccccc5)cc4)CC3)c2cc1OC"
  Assayed target: "Tyrosine-protein kinase SYK (Homo sapiens) (UniProt P43405)"
  residual activity / %: 101
- Smiles entry: "COc1ccc(CNc2nc(N(CCO)CCO)nc3c2ncn3C(C)C)cc1"
  Assayed target: "Tyrosine-protein kinase SYK (Homo sapiens) (UniProt P43405)"
  residual activity / %: 94
- Smiles entry: "COc1cc2ncnc(Nc3ccc(Oc4ccccc4)cc3)c2cc1OC"
  Assayed target: "Tyrosine-protein kinase SYK (Homo sapiens) (UniProt P43405)"
  residual activity / %: 110
- Smiles entry: "Ic1cccc(CSc2nnc(-c3ccncc3)o2)c1"
  Assayed target: "Tyrosine-protein kinase SYK (Homo sapiens) (UniProt P43405)"
  residual activity / %: 98
- Smiles entry: "O=C1NC(=O)/C(=C\\c2ccc3nccnc3c2)S1"
  Assayed target: "Tyrosine-protein kinase SYK (Homo sapiens) (UniProt P43405)"
  residual activity / %: 104
- Smiles entry: "Cc1nc(-c2ccccc2)c(-c2ccncc2)o1"
  Assayed target: "Tyrosine-protein kinase SYK (Homo sapiens) (UniProt P43405)"
  residual activity / %: 112
- Smiles entry: "CCC(=O)Nc1ccc2ncnc(Nc3cccc(Br)c3)c2c1"
  Assayed target: "Tyrosine-protein kinase SYK (Homo sapiens) (UniProt P43405)"
  residual activity / %: 125
